Every entry's value here was drawn from ChEMBL document CHEMBL1201862.

target: Ubiquitin-conjugating enzyme E2 N (Homo sapiens, UniProt P61088); type: functional
Sequence (P61088 whole entry): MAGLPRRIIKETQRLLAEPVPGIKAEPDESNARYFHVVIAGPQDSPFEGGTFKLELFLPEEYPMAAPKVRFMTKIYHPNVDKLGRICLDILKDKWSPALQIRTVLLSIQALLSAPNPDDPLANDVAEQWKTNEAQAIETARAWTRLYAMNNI
Active and inactive are the calls of the source.
Listing: IC50 of selected compounds

Prompt: Bench note: what IC50 did CN(C)CCCn1cnc2c(c1=N)C(c1ccccc1)c1ccc3ccccc3c1O2 (stereo unspecified) show?
Completion: > 20 µM (inactive)

Prompt: Bench note: what IC50 did CSCCC(NC(=O)c1ccccc1Br)C(=O)NNC(=O)c1csc(N2CCOCC2)n1 (stereo unspecified) show?
Completion: > 20 µM (inactive)

Prompt: Bench note: what IC50 did `N=C(N)N/N=C/c1ccc(OCc2ccc(Cl)cc2Cl)cc1` show?
Completion: 7.26 µM (active)

Prompt: Bench note: what IC50 did CC(=O)N1NC(=C2C(=O)N(C)C(=O)N(C)C2=O)CC1c1ccccc1 (stereo unspecified) show?
Completion: 12.5 µM (active)

Prompt: Bench note: what IC50 did `COc1ccc(NC(=O)c2[nH]cnc2C(=O)NCc2ccccc2)cc1` show?
Completion: > 20 µM (inactive)

Prompt: Bench note: what IC50 did `Cc1ccc(C(=O)N/C(=C\c2ccc(-c3cccc([N+](=O)[O-])c3)o2)C(=O)NCCCN(C)C)cc1` show?
Completion: > 20 µM (inactive)

###

target: Peroxisome proliferator-activated receptor gamma/Nuclear receptor coactivator 2 (Homo sapiens, UniProt P37231); test: TR-FRET dose response biochemical High Throughput Screening assay for agonists of the steroid receptor coactivator 2 (SRC-2) recruitment by the peroxisome proliferator-activated receptor gamma (PPAR gamma): non-selective agonists. [Related pubchem assays: 1297, 1032 ]; format: functional
Sequence (P37231 whole entry): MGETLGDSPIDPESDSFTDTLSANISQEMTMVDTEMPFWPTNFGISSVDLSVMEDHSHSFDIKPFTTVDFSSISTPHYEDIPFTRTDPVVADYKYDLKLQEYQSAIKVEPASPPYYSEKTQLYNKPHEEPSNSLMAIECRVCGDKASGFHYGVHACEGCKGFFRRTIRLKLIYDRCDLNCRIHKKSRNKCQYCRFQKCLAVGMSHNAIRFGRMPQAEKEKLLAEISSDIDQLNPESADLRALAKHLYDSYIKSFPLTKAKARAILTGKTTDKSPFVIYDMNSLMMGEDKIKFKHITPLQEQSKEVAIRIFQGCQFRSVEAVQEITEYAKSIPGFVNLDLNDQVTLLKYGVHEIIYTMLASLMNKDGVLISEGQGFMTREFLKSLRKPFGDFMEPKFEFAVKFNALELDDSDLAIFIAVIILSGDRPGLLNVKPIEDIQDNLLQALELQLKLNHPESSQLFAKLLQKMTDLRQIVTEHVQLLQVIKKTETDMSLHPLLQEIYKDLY
Sequence (Q15596 whole entry, further chain): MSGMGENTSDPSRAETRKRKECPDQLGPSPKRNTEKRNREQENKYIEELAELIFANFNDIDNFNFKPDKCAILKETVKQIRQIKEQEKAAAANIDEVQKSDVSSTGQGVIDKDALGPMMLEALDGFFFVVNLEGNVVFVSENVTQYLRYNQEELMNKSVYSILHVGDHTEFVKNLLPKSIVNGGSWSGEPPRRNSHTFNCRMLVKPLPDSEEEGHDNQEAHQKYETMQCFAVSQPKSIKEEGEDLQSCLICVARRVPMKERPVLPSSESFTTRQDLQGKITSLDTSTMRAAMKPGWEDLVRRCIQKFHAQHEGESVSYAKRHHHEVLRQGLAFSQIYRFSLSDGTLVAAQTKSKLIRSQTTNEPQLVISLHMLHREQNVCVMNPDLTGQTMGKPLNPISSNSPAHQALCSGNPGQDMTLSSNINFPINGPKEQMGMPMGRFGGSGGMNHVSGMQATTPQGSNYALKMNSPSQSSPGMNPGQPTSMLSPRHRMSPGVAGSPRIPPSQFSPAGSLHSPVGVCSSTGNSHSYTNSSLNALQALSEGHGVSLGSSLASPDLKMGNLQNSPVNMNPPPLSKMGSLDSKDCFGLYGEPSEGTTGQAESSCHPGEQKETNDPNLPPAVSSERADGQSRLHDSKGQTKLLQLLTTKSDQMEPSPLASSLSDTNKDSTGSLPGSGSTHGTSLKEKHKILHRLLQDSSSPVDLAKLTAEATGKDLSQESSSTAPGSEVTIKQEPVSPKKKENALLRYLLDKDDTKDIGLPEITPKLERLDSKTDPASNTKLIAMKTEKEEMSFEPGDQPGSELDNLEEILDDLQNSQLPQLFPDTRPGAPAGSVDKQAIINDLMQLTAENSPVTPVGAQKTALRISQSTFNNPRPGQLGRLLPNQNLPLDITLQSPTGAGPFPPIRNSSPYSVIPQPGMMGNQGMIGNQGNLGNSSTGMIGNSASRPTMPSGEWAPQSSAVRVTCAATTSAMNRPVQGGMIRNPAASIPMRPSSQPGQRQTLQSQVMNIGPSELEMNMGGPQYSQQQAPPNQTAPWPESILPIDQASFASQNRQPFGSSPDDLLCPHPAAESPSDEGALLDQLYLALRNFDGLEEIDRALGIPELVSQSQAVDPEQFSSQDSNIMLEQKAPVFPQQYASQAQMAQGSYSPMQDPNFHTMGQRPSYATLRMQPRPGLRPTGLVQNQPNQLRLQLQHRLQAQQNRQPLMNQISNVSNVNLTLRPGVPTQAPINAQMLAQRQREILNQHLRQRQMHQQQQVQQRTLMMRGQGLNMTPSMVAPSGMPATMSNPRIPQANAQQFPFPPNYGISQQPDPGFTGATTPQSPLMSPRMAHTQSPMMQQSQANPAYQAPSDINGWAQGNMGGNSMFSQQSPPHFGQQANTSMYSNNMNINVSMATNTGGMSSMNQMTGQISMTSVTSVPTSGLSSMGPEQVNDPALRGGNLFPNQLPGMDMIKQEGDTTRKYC
The source made the active and inactive calls.
Listing: EC50 of selected compounds

For orientation, consider the following solved cases.
compound	result
CCn1c(=O)cc(SCC(=O)N2CCC(C)CC2)c2ccccc21	> 79.4 µM (not active)
COc1cc(/C=C(\C#N)C(=O)Nc2ccccc2C(=O)O)cc(Cl)c1OC	> 79.4 µM (not active)
CC(Nc1ccc(Br)cn1)c1cc(Cl)ccc1O (centres undefined)	4.73 µM (active)

Could you now look at the following compound, please?
Prompt: Bench note: what EC50 did `O=C(Nc1nc2c(s1)COc1ccccc1-2)c1cccs1` show?
Completion: 19.7 µM (not active)

###

target: Replicative DNA helicase DnaB (Mycobacterium tuberculosis, UniProt P9WMR3); experiment: DnaB intein splicing inhibitors, dose response, biochemical, cell-free fluorescence (AID 449749); format: functional
Sequence (P9WMR3 1-399, added parts left off): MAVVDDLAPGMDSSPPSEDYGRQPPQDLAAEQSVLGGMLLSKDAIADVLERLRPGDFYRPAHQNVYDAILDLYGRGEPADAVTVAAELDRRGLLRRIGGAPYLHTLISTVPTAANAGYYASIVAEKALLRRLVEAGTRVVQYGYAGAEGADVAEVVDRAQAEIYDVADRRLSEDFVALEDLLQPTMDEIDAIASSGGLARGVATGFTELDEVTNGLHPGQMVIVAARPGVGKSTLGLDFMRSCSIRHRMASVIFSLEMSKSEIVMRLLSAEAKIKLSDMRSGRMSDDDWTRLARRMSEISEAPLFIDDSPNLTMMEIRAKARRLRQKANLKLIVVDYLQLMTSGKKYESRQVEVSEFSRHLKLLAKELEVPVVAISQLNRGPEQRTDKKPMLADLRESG
Calls of active or inactive are those of the source.
Listing: AC50 of selected compounds

For orientation, consider the following solved cases.
smiles	AC50
Cc1ccc(S(=O)(=O)N(C(=O)c2ccncc2)c2ccc(OC(=O)c3ccncc3)c3ccccc23)c(C)c1	15.4 µM (active)
Cc1c(C#N)c(NC(=O)CCl)n(Cc2ccccc2)c1C	21.5 µM (active)

Could you now look at the following compound, please?
Prompt: Bench note: what AC50 did `CC1=NN(c2ccc(Cl)c(C(=O)O)c2)C(=O)C1` show?
Completion: 1.88 µM (active)

###

target: Corticotropin-releasing factor receptor 2/Corticotropin-releasing factor-binding protein (Homo sapiens, UniProt P24387+Q13324); test: Dose Response confirmation of uHTS hits for small molecule antagonists of the CRF-binding protein and CRF-R2 receptor complex.; type: functional; conditions: read-out: IC50_Mean
Sequence (Q13324 whole entry): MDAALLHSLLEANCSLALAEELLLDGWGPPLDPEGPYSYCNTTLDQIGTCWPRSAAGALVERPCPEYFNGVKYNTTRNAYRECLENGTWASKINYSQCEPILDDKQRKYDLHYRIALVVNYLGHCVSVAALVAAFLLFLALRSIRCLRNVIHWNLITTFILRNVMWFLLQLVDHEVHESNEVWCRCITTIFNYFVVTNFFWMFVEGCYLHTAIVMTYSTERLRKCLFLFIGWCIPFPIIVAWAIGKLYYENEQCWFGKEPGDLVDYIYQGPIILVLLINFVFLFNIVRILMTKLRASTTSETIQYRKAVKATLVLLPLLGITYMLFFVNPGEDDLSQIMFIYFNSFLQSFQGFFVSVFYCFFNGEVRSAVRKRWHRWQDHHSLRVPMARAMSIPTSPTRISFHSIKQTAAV
Sequence (P24387 whole entry): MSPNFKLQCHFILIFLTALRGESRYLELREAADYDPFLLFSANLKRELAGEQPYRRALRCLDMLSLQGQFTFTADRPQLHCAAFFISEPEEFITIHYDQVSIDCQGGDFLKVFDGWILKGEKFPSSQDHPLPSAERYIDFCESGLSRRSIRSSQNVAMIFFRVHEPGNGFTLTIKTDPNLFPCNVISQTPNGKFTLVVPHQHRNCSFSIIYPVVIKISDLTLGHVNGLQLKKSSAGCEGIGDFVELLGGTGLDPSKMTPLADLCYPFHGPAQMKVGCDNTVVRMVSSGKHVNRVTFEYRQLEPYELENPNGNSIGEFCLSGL
Calls of active or inactive are those of the source.
A correct response names exactly one class from 1 (active), 0 (inactive)

compound	category
O=[N+]([O-])c1ccc2nc(S)sc2c1	1

Prompt: Test call, this compound: `Cc1ccccc1Cn1cccc1/C=C1/C(=N)N2C=CSC2=NC1=O`
Completion: 0

Prompt: Test call, this compound: `COc1ccc(CNc2cc([N+](=O)[O-])ccc2OC)cc1`
Completion: 1

Prompt: Test call, this compound: CCCCCC(=O)N1CC2(CC(c3cccc(NC(=O)CC)c3)=NO2)C[C@H]1C(N)=O (stereo not given in full)
Completion: 0

Prompt: Test call, this compound: `Clc1cnc(Oc2ccc(Oc3ncc(Cl)cc3Cl)cc2)c(Cl)c1`
Completion: 1

Prompt: Test call, this compound: `COc1cc(C=O)ccc1Oc1cnccn1`
Completion: 0

Prompt: Test call, this compound: `COC(=O)c1cc(OC)c(OC)cc1NC(=O)c1c(-c2ccccc2Cl)noc1C`
Completion: 1

Prompt: Test call, this compound: Cc1nc2ccccc2n1CC(O)COC1CCCCC1 (stereo not given)
Completion: 1

Prompt: Test call, this compound: CC(CCc1ccco1)NC(=O)c1cccc2c1C(=O)N(C1CCCCC1)C2 (stereo not given)
Completion: 1

Prompt: Test call, this compound: CC1CCc2[nH]c3ccc(C(=O)N(C)CC(=O)Nc4cccc(F)c4)cc3c2C1 (stereo not given)
Completion: 0

Prompt: Test call, this compound: `COc1ccc(/C=C/C(=O)N(C)CC(=O)Nc2cccc(F)c2)cc1S(=O)(=O)N1CCCCC1`
Completion: 0

Prompt: Test call, this compound: `CC(=O)N1CCOc2ccc(S(=O)(=O)N3CCC(C(=O)NCc4ccc(C)cc4)CC3)cc21`
Completion: 0

Prompt: Test call, this compound: `COc1cc(NC(S)=NCc2ccco2)cc(OC)c1`
Completion: 0

Prompt: Test call, this compound: `Cc1cc([N+](=O)[O-])ccc1NCc1ccccc1[N+](=O)[O-]`
Completion: 0

Prompt: Test call, this compound: Cc1ccc(NC(=O)C2CCCN2C(=O)c2cccs2)cc1C (stereo not given)
Completion: 0

###

target: Ubiquitin-conjugating enzyme E2 N (Homo sapiens); format: functional;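 also: Dose-response confirmation in a TR-FRET assay detecting UBC13-driven polyubiquitin chain formation, inhibition measured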
Activity calls are given as the source filed them.
A correct response names exactly one class from active, inactive

Please review the entries below; each comes with its answer.
smiles	category
Cc1cc(N2CCN(C)CC2)nc2ccc(NC(=S)N3CCN(c4ccc(Cl)cc4)CC3)cc12	inactive
O=C(CSc1nc2ccsc2c(=O)n1Cc1ccccc1)NCc1ccco1	active
CCOC(=O)N1CCc2c(sc(NC(=O)CN(CC)CC)c2C#N)C1	inactive
[H]/N=C(\N/C(=N/[H])NCCCCCCNC(=N)NC(=N)Nc1ccc(Cl)cc1)Nc1ccc(Cl)cc1	active

Prompt: Test call, this compound: `OCCN1CCN(CCCN2c3ccccc3Sc3ccc(Cl)cc32)CC1`
Completion: active
